- Method Summary: The drug is tested on Z-002 corresponding to rabbit gut metagenome with ENA study accession number: PRJEB37062 and ENA sample accession number: ERS12561802 for biotransformation under anaerobic condition. The drug concentrations were measured over 9 timepoints collected between 0 and 24 hours of incubation by liquid-chromatography-coupled mass spectrometry (LC–MS); note: call rule not given here
- Experimental Setup: 2 µM
Reported Metric: Bacterial Biotransformation

Record excerpt, results attached:
INSERT INTO results (molecule, result) VALUES
  ('CC(=O)CCCCn1c(=O)c2c(ncn2C)n(C)c1=O', 'Compound NOT metabolized'),
  ('C[C@]12CCC(=O)C=C1[C@@H]1C[C@@H]1[C@H]1[C@@H]3[C@@H]4C[C@@H]4[C@@]4(CCC(=O)O4)[C@@]3(C)CC[C@@H]12', 'Compound metabolized'),
  ('O=C(O)c1cc(/N=N/c2ccc(S(=O)(=O)Nc3ccccn3)cc2)ccc1O', 'Compound metabolized'),
  ('CCc1cccc2c3c([nH]c12)C(CC)(CC(=O)O)OCC3 (configuration not stated)', 'Compound NOT metabolized'),
  ('CC(=O)O[C@H]1C(=O)[C@@]2(C)[C@H]([C@H](OC(=O)c3ccccc3)[C@]3(O)C[C@H](OC(=O)[C@H](O)[C@@H](NC(=O)c4ccccc4)c4ccccc4)C(C)=C1C3(C)C)[C@]1(OC(C)=O)CO[C@@H]1C[C@@H]2O', 'Compound metabolized'),
  ('CC(=O)OCC(CCn1cnc2cnc(N)nc21)COC(C)=O', 'Compound metabolized');

// next item, Bacterial Biotransformation requested
Answer with the recorded Bacterial Biotransformation of COc1ccc(CN2CCNCC2)c(OC)c1OC.Cl.Cl [TRIMETAZIDINE DIHYDROCHLORIDE] only. Compound NOT metabolized

The origin of these recorded values is ChEMBL document CHEMBL5724914.
